experimental-system: Dihydroorotate dehydrogenase (quinone), mitochondrial (Plasmodium falciparum (isolate 3D7)) (UniProt Q08210)
Sequence (Q08210 whole entry, looked up): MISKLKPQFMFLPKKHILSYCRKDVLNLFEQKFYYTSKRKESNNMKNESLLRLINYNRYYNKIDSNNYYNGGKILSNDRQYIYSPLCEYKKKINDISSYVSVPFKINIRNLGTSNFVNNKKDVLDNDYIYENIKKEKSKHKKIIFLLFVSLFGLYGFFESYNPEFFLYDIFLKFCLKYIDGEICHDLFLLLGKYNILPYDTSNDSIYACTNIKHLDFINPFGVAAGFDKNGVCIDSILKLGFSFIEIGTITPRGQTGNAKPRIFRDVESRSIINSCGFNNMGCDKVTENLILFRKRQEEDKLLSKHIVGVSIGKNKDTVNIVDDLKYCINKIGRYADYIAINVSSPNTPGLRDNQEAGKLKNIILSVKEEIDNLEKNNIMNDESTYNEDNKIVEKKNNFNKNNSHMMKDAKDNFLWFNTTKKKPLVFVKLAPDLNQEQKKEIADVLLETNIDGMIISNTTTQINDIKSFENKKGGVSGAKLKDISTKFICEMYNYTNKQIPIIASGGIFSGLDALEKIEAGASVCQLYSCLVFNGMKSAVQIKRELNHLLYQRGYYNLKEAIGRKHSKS
procedure-text: PfDHODH enzyme inhibitors, primary screen, biochemical, C-terminal His tag, absorbance 600 nm (AID 1175);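 further: recombinant parasite enzyme with a five histidine tag at its C terminus; test concentration not given here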
experimental-setup: DCIP absorbance 600 nm, called active from +8 up or from −8 down
Activity calls are given as the source filed them.
Outcome codes: 1 (yes) = active, 0 (no) = inactive

# molecule, label-value
rows = [
    ("COC(=O)[C@@]1(Cc2ccc(F)cc2)[C@H]2c3cc(C(=O)N4CCCC4)n(CCc4c[nH]c5ccc(OC)cc45)c3C[C@H]2CN1C(=O)c1ccccc1", "0 (no)"),
    ("COc1cc2c(cc1O)C(C)N(Cc1cc3c(cc1Br)OCO3)CC2 (centres undefined)", "1 (yes)"),
    ("COCCCNC(=O)[C@@H]1c2ccccc2C(=O)N(Cc2ccccc2C(F)(F)F)[C@H]1c1ccc(CO)cc1", "0 (no)"),
    ("CC(C)(C)N1CC=CC23O[C@@H]4C=CCOC(=O)[C@@H]4[C@H]2C(=O)N(CCCO)[C@@H]3C1=O (some centres undefined)", "0 (no)"),
]
